Below: a set of entries, each annotated with reported growth inhibition.
test: NCI Yeast Anticancer Drug Screen. Data for the mlh1 rad18 strain (AID 175); conditions: S. cerevisiae mlh1 rad18 strain growth inhibition; at 50.0 µM; hits give high values
This is part of a sample that, as a whole, favours compounds with a hit. Of some 79,000 tested, about 15% had one in any assay.
Provide the reading as a plain figure in %.

compound	unit_of_measurement	growth inhibition
O=C1OC(/C=C/c2ccccc2)=NC/1=C\C=C\c1ccccc1	%	-1.65

INPUT: Identify measured growth inhibition associated with O=[N+]([O-])c1ccc2c(c1)Cc1cccc([N+](=O)[O-])c1-2
OUTPUT: 9.5

INPUT: Identify measured growth inhibition associated with CC(C)(Cc1ccccc1)C(=C=C=C=C(c1ccccc1)C(C)(C)Cc1ccccc1)c1ccccc1
OUTPUT: -15.7

INPUT: Identify measured growth inhibition associated with CCCCCC(=O)NC(=S)Nc1nn[nH]n1
OUTPUT: -47.1

INPUT: Identify measured growth inhibition associated with CC1CN(N)C(=O)O1 (configuration not stated)
OUTPUT: -21.9

INPUT: Identify measured growth inhibition associated with O=C(O)c1ccc(NC(=S)NC(=O)c2cccc([N+](=O)[O-])c2)cc1
OUTPUT: 23.6

INPUT: Identify measured growth inhibition associated with CC(=O)OCC1OC(n2c(Br)nc3c(N)ncnc32)C2OC(C)(C)OC12 (configuration not stated)
OUTPUT: -6.55
